SYSTEM_UNDER_TEST: UniProt Q8TDX7
Sequence (Q8TDX7 whole entry, looked up): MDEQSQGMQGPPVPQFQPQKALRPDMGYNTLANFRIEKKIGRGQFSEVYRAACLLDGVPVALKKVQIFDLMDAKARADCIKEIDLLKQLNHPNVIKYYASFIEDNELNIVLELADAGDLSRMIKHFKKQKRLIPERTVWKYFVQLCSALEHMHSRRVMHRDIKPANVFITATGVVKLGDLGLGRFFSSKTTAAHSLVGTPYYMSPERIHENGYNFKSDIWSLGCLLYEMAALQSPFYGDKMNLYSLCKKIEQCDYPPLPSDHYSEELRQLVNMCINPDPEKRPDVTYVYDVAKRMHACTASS
METHOD_SUMMARY: KINOMEscan competition binding
APPLIED_CONDITIONS: compound 10.0 µM
In plain terms, low kinase still bound, per cent of control, meaning strictly below 70%, gives condition met, and everything else gives condition not met.

INSERT INTO assay_data (structure_as_smiles, class_name) VALUES
  ('C=CC(=O)Nc1ccc(CN(C(=O)Nc2c(Cl)c(OC)cc(OC)c2Cl)c2cc(Nc3ccc(N4CCN(C)CC4)cc3)ncn2)cc1', 'condition not met');

Query: In the record for CCN1CCN(C(=O)Cc2ccc(Nc3ncc(F)c(Nc4ccc(C(=O)Nc5ccccc5Cl)cc4)n3)cc2)CC1 , is kinase still bound, per cent of control less than 70%?
Response: condition met

Query: In the record for Cc1n[nH]c2ccc(-c3cncc(OC[C@@H](N)Cc4c[nH]c5ccccc45)c3)cc12 , is kinase still bound, per cent of control less than 70%?
Response: condition not met

Query: In the record for CNC(=O)c1ccc(Nc2cc(Nc3ccccc3S(=O)(=O)C(C)C)c3cc[nH]c3n2)nc1 , is kinase still bound, per cent of control less than 70%?
Response: condition not met

Query: In the record for CN(C)C/C=C/C(=O)Nc1ccc(C(=O)Nc2cccc(Nc3nccc(-c4cccnc4)n3)c2)cc1 , is kinase still bound, per cent of control less than 70%?
Response: condition met

Query: In the record for COc1ccc(N(C(=O)Oc2c(C)cccc2C)c2ccnc(Nc3ccc(N4CCN(C)CC4)cc3)n2)c(OC)c1 , is kinase still bound, per cent of control less than 70%?
Response: condition not met

Query: In the record for C[C@@H](Oc1cc(-c2cnn(C3CCNCC3)c2)cnc1N)c1c(Cl)ccc(F)c1Cl , is kinase still bound, per cent of control less than 70%?
Response: condition met

Query: In the record for N#CCNC(=O)c1ccc(-c2ccnc(Nc3ccc(N4CCOCC4)cc3)n2)cc1 , is kinase still bound, per cent of control less than 70%?
Response: condition met

* * *

SYSTEM_UNDER_TEST: MAP4K5 (human)
METHOD_SUMMARY: KINOMEscan competition binding
APPLIED_CONDITIONS: compound 10.0 µM
QUANTITY_KIND: kinase still bound, per cent of control

INSERT INTO results (structure_as_smiles, recorded_measurement) VALUES
  ('COCC(=O)NC/C=C/c1ccc2ncnc(Nc3ccc(Oc4ccc(C)nc4)c(C)c3)c2c1', '86%'),
  ('O=c1cc(N2CCOCC2)oc2c(-c3cccc4c3sc3ccccc34)cccc12', '89%');

Field: kinase still bound, per cent of control. Fill in for each record below.
1. CN(C)C/C=C/C(=O)Nc1ccc(C(=O)Nc2cccc(Nc3nccc(-c4cccnc4)n3)c2)cc1
2. N#CCNC(=O)c1ccc(-c2ccnc(Nc3ccc(N4CCOCC4)cc3)n2)cc1
3. COc1cc(C(=O)N2CCC(N3CCN(C)CC3)CC2)ccc1Nc1ncc2c(n1)N(C)c1ccccc1C(=O)N2C
4. CCN1CCN(C(=O)Cc2ccc(Nc3ncc(F)c(Nc4ccc(C(=O)Nc5ccccc5Cl)cc4)n3)cc2)CC1

Response:
59%
100%
100%
64%

* * *

System: KIT (human), P10721 [L576P]
Sequence (P10721 whole entry L576P, looked up): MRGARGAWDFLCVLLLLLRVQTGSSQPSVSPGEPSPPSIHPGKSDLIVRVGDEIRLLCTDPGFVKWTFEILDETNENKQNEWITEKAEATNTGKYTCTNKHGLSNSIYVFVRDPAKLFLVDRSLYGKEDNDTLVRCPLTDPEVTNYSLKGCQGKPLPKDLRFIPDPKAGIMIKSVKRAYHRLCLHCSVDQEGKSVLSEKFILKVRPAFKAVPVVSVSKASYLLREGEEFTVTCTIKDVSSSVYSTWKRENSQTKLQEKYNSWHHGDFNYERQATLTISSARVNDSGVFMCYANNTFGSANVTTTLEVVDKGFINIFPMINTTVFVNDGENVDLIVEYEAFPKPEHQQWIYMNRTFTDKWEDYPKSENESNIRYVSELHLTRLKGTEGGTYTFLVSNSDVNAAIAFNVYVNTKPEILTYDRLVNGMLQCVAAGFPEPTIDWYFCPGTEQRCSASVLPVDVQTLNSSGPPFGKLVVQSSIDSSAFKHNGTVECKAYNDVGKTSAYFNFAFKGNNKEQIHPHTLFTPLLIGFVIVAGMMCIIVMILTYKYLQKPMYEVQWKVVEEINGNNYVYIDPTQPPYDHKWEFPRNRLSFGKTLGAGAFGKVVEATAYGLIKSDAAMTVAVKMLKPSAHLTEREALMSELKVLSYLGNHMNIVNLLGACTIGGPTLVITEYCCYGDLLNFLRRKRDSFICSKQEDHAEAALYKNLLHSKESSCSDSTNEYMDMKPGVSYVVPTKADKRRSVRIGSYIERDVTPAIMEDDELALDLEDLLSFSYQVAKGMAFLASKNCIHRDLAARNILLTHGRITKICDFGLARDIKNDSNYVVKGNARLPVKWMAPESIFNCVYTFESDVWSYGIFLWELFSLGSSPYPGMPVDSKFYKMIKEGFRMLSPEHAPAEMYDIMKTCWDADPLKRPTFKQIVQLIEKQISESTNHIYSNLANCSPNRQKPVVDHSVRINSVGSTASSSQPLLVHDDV
METHOD_SUMMARY: KINOMEscan competition binding
APPLIED_CONDITIONS: compound 10.0 µM
QUANTITY_KIND: kinase still bound, per cent of control (%)
One number for each entry, in %.

Below are worked cases with known answers.
INSERT INTO results (structure_as_smiles, quantity_kind, recorded_measurement) VALUES
  ('N#Cc1c(NC(=O)c2cccc3ccccc23)sc2c1CCCC2', 'kinase still bound, per cent of control', 79),
  ('O=C(NOC[C@H](O)CO)c1ccc(F)c(F)c1Nc1ccc(I)cc1F', 'kinase still bound, per cent of control', 75),
  ('CN(C)C/C=C/C(=O)Nc1cccc(Nc2ncc3c(n2)N(C)c2ccccc2C(=O)N3C)c1', 'kinase still bound, per cent of control', 33),
  ('COc1cc(N2CCN(C)CC2)ccc1Nc1nc(N)c(C(=O)c2c(Cl)cccc2Cl)s1', 'kinase still bound, per cent of control', 100),
  ('COc1cc(N2CCN(C)CC2)ccc1Nc1ncc2c(n1)N(C)c1ccccc1C(=O)N2C', 'kinase still bound, per cent of control', 100);

Field: kinase still bound, per cent of control. Fill in for each record below.
1. CCN(CC)CCCCNc1ncc2c(n1)N(C)C(=O)N(c1c(Cl)c(OC)cc(OC)c1Cl)C2
2. COc1ccc(N(C(=O)Oc2c(C)cccc2C)c2ccnc(Nc3ccc(N4CCN(C)CC4)cc3)n2)c(OC)c1

Response:
[2.3, 1]

Field: kinase still bound, per cent of control. Fill in for each record below.
1. CCCS(=O)(=O)Nc1ccc(F)c(C(=O)c2c[nH]c3ncc(Cl)cc23)c1F
2. CNC(=O)Nc1ccc(-c2nc(N3CC4CCC(C3)O4)c3cnn(C4CCC5(CC4)OCCO5)c3n2)cc1

Response:
6.4
85
